B1: GFP aptamer (parent)
chain: GCUUCUGGACUGCGAUGGGAGCACGAAACGUCGUGGCGCAAUUGGGUGGGGAAAGUCCUUAAAAGAGGGCCACCACAGAAGC

Variants of: B1
Assay: HiTS-RAP
Conditions: with EGFP
Categorize each record by its Kd using lower level (below 5 nM), middle level (5 nM to below 10 nM), upper level (10 nM or more)

- C37U U43C: upper level

Category of A23G A27G : middle level

Please answer likewise for A77G lower level

Please answer likewise for U47C C73U upper level

Please answer likewise for U6C middle level

Please answer likewise for A20G A26G middle level

Please answer likewise for C58U C73U lower level
